- test: qHTS of pediatric cancer cell lines to identify multiple opportunities for drug repurposing: Primary screen for NB-EBc1 cells (AID 1347095);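 further: plate controls were DMSO neutral control for no effect and bortezomib for full effect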
- measurementConditions: NB-EBc1 neuroblastoma viability, CellTiter-Glo luminescence, 48 h; series mostly up to 46 µM
- Procedure: Drug repurposing or repositioning has been offered as a strategy for drug development in oncology programs. This approach has special potential for childhood cancers and other rare or orphan diseases, where the expected return on new drug development has been a disincentive to pharmaceuticals. […] We employed a titration-based paradigm (quantitative high-throughput screening or qHTS), where all compounds were tested at multiple concentrations for their effect on cell viability. […]
Records with an inconclusive call do not appear. Active and inactive are the calls of the source. The call rests on the fitted dose curve; in most records, active means well fitted cell-killing curve with a large enough effect; inconclusive means small, poorly fitted or top-dose-only effect; inactive means no such curve, though single readings can be large or run the other way.
Field 'call' accepts yes for active, no for inactive

// query Hello, I am checking results. What call was entered for COC(=O)C1=C(C)NC(C)=C(C(=O)OCCc2ccc(N3CCN(C(c4ccccc4)c4ccccc4)CC3)cc2)C1c1cccc([N+](=O)[O-])c1 (centres undefined) ?
// result no

// query Can you check OC(CCCN1CCCCC1)(c1ccccc1)c1ccccc1 next?
// result no

// query // repeat for Cc1oc(=O)oc1COC(=O)[C@@H]1N2C(=O)[C@@H](NC(=O)[C@H](N)c3ccccc3)[C@H]2SC1(C)C and report
// result no

// query Same again, this time with COc1c(N2C[C@@H]3CCCN[C@@H]3C2)c(F)cc2c(=O)c(C(=O)O)cn(C3CC3)c12
// result no

// query Please do the same for CC(C)CCCC(C)NCCC(C)C (centres undefined) as well.
// result no

// query Consider next the compound O=C1CC2(CCCC2)CC(=O)N1 in the same way.
// result no

// query Another compound: CCCc1ncc(C(=O)O)s1
// result no

// query And then O=[N+]([O-])c1nccn1CO[C@@H](CO)[C@H](O)CO , what is it?
// result no

// query Same for COc1ccc(CCC(C)=O)cc1
// result no

###

- Tested on: PA-1
- test: Primary qHTS to identify gynecologic anti-cancer compounds using libraries of approved drugs and bioactive compounds (AID 1345084); further: on the % scale 0 is the no-effect control and ±100 the full control effect; nearly all actives have a fitted effect of over 55% in size
- measurementConditions: Gynecologic cancer cell panel viability, ATPlite luminescence, 48 h; series mostly up to 57.5 µM
Records with an inconclusive call do not appear. Activity calls are given as the source filed them. The call rests on the fitted dose curve; in most records, active means well fitted cell-killing curve with a large enough effect; inconclusive means small, poorly fitted or top-dose-only effect, or effect the other way; inactive means flat fitted curve, though single readings scatter.
Can you answer with just one of these options? active, inactive

For orientation, consider the following solved cases.
CC(=O)O[C@@H]1CC2C3CCc4cc(OC(=O)c5ccccc5)ccc4C3CCC2(C)[C@H]1OC(C)=O (some centres not stated); inactive
COc1ccc(/C(C)=C/C(=O)O)c(OC)c1; inactive
O=C1CCCc2c(O)cccc21; inactive
CC1CC(=O)NN=C1c1ccc(NCC(C)(C)NCC(O)COc2cc(Cl)ccc2C#N)cc1 (configuration not stated); inactive
CCCCC(O)/C=C(C)/C=C/C=C/C(=O)N1CCCC1=O (configuration not stated); inactive

// query Please share the test call associated with CNC(=O)c1c(I)c(NC(C)=O)c(I)c(C(=O)O)c1I .
// result inactive

// query Please give the result for CCn1ccc(NS(=O)(=O)c2ccc(N)cc2)nc1=O too.
// result inactive

// query Try this compound too: NS(=O)(=O)c1cc(C(=O)NN2C[C@H]3[C@H]4CCC(C4)[C@H]3C2)ccc1Cl
// result inactive

###

- test: qHTS Assay for Identifying Gametocytocidal Compounds (AID 743244);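 further: on the % scale 0 is the no-effect control and ±100 the full control effect; actives lower the fluorescent signal which means gametocytes are killed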
- measurementConditions: P. falciparum 3D7 stage III-V gametocytes, alamarBlue, 72 h; hits give low values
Results filed as inconclusive are left out.
Each record here notes measured max response.
All answers are understood in %, so give the number only.

Record excerpt, results attached:
NCC(=O)O; -6.74
O=P(O)(O)OCC(O)CO (centres undefined); 11.3
CC(COc1ccccc1)NN (centres undefined); -1.29
O=C1NC(=O)/C(=C/c2ccc3c(c2)OC(F)(F)O3)S1; -20.1
O=C(O)c1[nH]n(-c2ccc(S(=O)(=O)O)cc2)c(=O)c1N=Nc1ccc(S(=O)(=O)O)cc1; -0.65

// query Given the entry Nc1nnnn1-c1ccccc1 , report its measured max response.
// result 2.05

// query Subsequent entry: O=C1CC2(CCCC2)CC(=O)N1CCNCC1COc2ccccc2O1 (centres undefined)
// result 2.39

// query What do you get for Cc1cc(O)c2c(O)c3c(O)cccc3cc2c1 ?
// result 12.2

// query // repeat for OC[C@]1(O)OC[C@@H](O)[C@H](O)[C@@H]1O and report
// result 13.1

// query And for CC(C)(C)C(=O)OCOC(=O)C1N2C(=O)CC2S(=O)(=O)C1(C)C (centres undefined) ?
// result 0.683

// query Okay, and O=C(O)Cc1ccc(OCCNC[C@H](O)c2ccccc2)cc1 ?
// result -2.47

// query Also O=C1CC[C@H](C(=O)N2CCCCC2)N1 , if possible.
// result -15.9

// query Here is the next compound: Cc1nc([N+](=O)[O-])cn1-c1ccc([N+](=O)[O-])cc1
// result 9.29

###

- test: P-glycoprotein substrates identified in KB-8-5-11 adenocarcinoma cell line, qHTS therapeutic library screen (AID 1346987); further: nearly all actives have a fitted effect of over 65% in size
- measurementConditions: KB-8-5-11 (P-gp overexpressing) viability, CellTiter-Glo, 72 h; series mostly up to 44.5 µM
Records with an inconclusive call do not appear. Active and inactive are the calls of the source. The call rests on the fitted dose curve; in most records, active means well fitted inhibition curve with a large enough effect; inconclusive means small, poorly fitted or top-dose-only effect; inactive means flat fitted curve, though single readings scatter.
Answer with one of the outcomes 1 (active), -1 (inactive)

CC(NCCC(c1ccccc1)c1ccccc1)c1ccccc1 (stereo unspecified); 1

// query Name the outcome recorded for Nc1ccc2cc3ccc(N)cc3nc2c1 in the assay.
// result 1

// query CN1C(=O)CC(C)(c2ccccc2)C1=O (stereo unspecified) , same question.
// result -1

// query Follow-up item: Cc1ccc(O)cc1
// result -1

// query Try the compound CC(=O)[C@H]1CC[C@H]2[C@@H]3C=CC4=CC(=O)CC[C@@]4(C)[C@@H]3CC[C@]12C
// result -1

// query Subsequent entry: CO[C@@H]1[C@@H](OC)[C@H](C)[C@@](O)(CC(=O)O)O[C@H]1[C@H](C)[C@H]1O[C@@]2(CC[C@@](C)([C@H]3CC[C@@](C)([C@@H]4O[C@@H]([C@H]5O[C@](C)(O)[C@H](C)C[C@@H]5C)C[C@@H]4OC4C[C@H](OC)[C@@H](OC)[C@H](C)O4)O3)O2)C[C@H](O)[C@H]1C (stereo partly specified)
// result 1

###

- System: Zika virus NS2B-NS3 protease
- test: Primary screen GU AMC qHTS for Zika virus inhibitors (AID 1347154); further: nearly all actives have a fitted effect of over 70% in size
- measurementConditions: Zika NS2B-NS3 unlinked protease, AMC fluorogenic substrate; series mostly up to 54.1 µM
Results filed as inconclusive are left out. Activity calls are given as the source filed them. The call rests on the fitted dose curve; in most records, active means well fitted inhibition curve with a large enough effect; inconclusive means small, poorly fitted or top-dose-only effect; inactive means flat fitted curve, though single readings scatter.
The categories you may choose from are active, inactive

Here are 3 molecules together with their reported answers.
CC(C)OP(=O)(CP(=O)(OC(C)C)OC(C)C)OC(C)C; inactive
COC(=O)c1cc(S(N)(=O)=O)ccc1OC; inactive
Cc1sccc1Br; inactive

// query Hello, I am checking results. What call was entered for Nc1nc(=O)n([C@@H]2O[C@H](CO)[C@@H](O)[C@@H]2F)cc1I ?
// result inactive

// query Please do the same for CCCCCN(CCCOC)C(=O)C(CCC(=O)O)NC(=O)c1ccc(Cl)c(Cl)c1 (configuration not stated) as well.
// result inactive

// query Try this molecule next: Cc1c(F)cc2c(=O)c(C(=O)O)cn3c2c1CCC3C (configuration not stated)
// result inactive

// query Could you do the same for O=C(O)Cc1ccccc1Oc1ccc(Cl)cc1Cl , please?
// result inactive

// query Consider next the molecule CCCC(=O)c1cc(O)c(O)cc1O in the same way.
// result active

// query // same read-out, input: CCCCCCCCCCCCCCCC[n+]1ccccc1
// result inactive

// query Now consider CCOC(=O)C(=O)CCc1ccccc1 and answer again.
// result inactive

// query How about this molecule: NS(=O)(=O)c1cc(C(=O)NN2C[C@H]3[C@H]4CCC(C4)[C@H]3C2)ccc1Cl
// result inactive

// query Note, next up: CCN(CC)CCN
// result inactive

###

- test: qHTS of pediatric cancer cell lines to identify multiple opportunities for drug repurposing: Primary screen for OHS-50 cells (AID 1347103);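 further: plate controls were DMSO neutral control for no effect and bortezomib positive control for full effect; nearly all actives have a fitted effect of over 40% in size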
- measurementConditions: OHS-50 osteosarcoma viability, CellTiter-Glo luminescence, 48 h; series mostly up to 57.3 µM
Results filed as inconclusive are left out. The source made the active and inactive calls. The call rests on the fitted dose curve; in most records, active means well fitted cell-killing curve with a large enough effect; inconclusive means small, poorly fitted or top-dose-only effect; inactive means no such curve, though single readings can be large or run the other way. Where a SMILES comes first, the peptide text is derived from it.
measuredAttribute: Potency

Some molecules with recorded Potency:
CC(=O)N[C@@H](CO)C(=O)N[C@@H](CC(=O)O)C(=O)N[C@@H](CCCCN)C(=O)N1CCC[C@H]1C(=O)O (Ac-SDKP-OH); inactive
O=C(O)CCC(=O)OC[C@@H](NC(=O)C(Cl)Cl)[C@H](O)c1ccc([N+](=O)[O-])cc1; inactive
CCOC(=O)O[C@]1(C(=O)OCCl)CC[C@H]2[C@@H]3CCC4=CC(=O)C=C[C@]4(C)[C@H]3[C@@H](O)C[C@@]21C; inactive
CCO[C@H](Cc1ccc(OCCc2ccc(OS(C)(=O)=O)cc2)cc1)C(=O)O; inactive
CCOC(=O)C(O)c1ccccc1 (centres undefined); inactive

// query Tell me the measured Potency of COc1ccccc1N1CCN(CC(O)COc2cc(OC)c(OC)c(OC)c2)CC1 (centres undefined) , please.
// result inactive

// query Try the molecule NS(=O)(=O)c1ccc(N2CCCCS2(=O)=O)cc1
// result inactive
